Assay: in vitro
valueType: CC50

The value of CC50 measured for the compound Nc1nc2c(ncn2COCCO)c(=O)[nH]1 [Acyclovir] turned out to be > 100 µg/mL
